Target: chemokine receptor 1 (CCR1) (UniProt P56482)
Test: competition with 125I-RANTES for binding to CCR1
readout-kind: pKi
The value called pKi is obtained by taking minus log10 of the concentration in mol/L.

Fill in: pKi of processed human chemokine PHC-1 (HCC-1[9-74]) (ligand) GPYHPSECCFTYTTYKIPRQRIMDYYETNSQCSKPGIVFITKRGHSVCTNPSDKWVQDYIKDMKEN is ___
10.64
